test system: KB3-1 human epidermoid carcinoma tumor cells; assay: MTT cytotoxicity assay (Test B); assay type: cell-based; details: KB 3-1, 96 h, cells cultured 4 days
Definition: the class of an entry is the range in bucket A: < 100 nM; bucket B: ≥ 100 nM and < 1000 nM; bucket C: ≥ 1000 nM that contains its IC50.

O=C1NCc2cc(CCNC(=O)C(F)(F)F)cc(c2)CNC(=O)c2coc(n2)-c2coc(n2)-c2cc(Br)cc(n2)-c2nc(co2)-c2nc1co2 bucket C
CN(C)CCc1cc2cc(c1)CNC(=O)c1coc(n1)-c1coc(n1)-c1cccc(c1)-c1nc(co1)-c1nc(co1)C(=O)NC2 bucket B
CN(C)c1cc2cc(c1)CNC(=O)c1coc(n1)-c1coc(n1)-c1cccc(n1)-c1nc(co1)-c1nc(co1)C(=O)NC2 bucket A
O=C1NCc2cccc(c2)CNC(=O)c2coc(n2)-c2csc(n2)-c2cccc(n2)-c2nc(co2)-c2nc1co2 bucket B
O=C1NCc2cc(Br)cc(c2)CNC(=O)c2coc(n2)-c2coc(n2)-c2cccc(n2)-c2nc(co2)-c2nc1co2 bucket A

Here is another compound to look at.
Q. Class label required: `O=C1NCCNCCNC(=O)c2coc(n2)-c2coc(n2)-c2cccc(n2)-c2nc(co2)-c2nc1co2`
A. bucket C

---

Recorded melting point values for a group of molecules are listed next.

Answered cases to consult:
O=C1NCc2cc(Br)cc(c2)CNC(=O)c2coc(n2)-c2coc(n2)-c2cccc(n2)-c2nc(co2)-c2nc1co2 248 to 250 °C
O=C1NCc2cccc(c2)CNC(=O)c2coc(n2)-c2coc(n2)-c2cccc(n2)-c2nc(co2)-c2nc1co2 320 to 324 °C (dec.)
NCCCOc1cc2nc(c1)-c1nc(co1)-c1nc(co1)C(=O)NCc1cccc(c1)CNC(=O)c1coc(n1)-c1coc-2n1 237 to 239 °C (dec.)
O=C1NCc2cc(CCNC(=O)C(F)(F)F)cc(c2)CNC(=O)c2coc(n2)-c2coc(n2)-c2cccc(n2)-c2nc(co2)-c2nc1co2 290 °C (dec.)

Shifting focus to the molecule that follows.
Q. Look up melting point for this molecule: `O=C(NCCc1cc2cc(c1)CNC(=O)c1coc(n1)-c1coc(n1)-c1cccc(n1)-c1nc(co1)-c1nc(co1)C(=O)NC2)OCc1ccccc1`
A. 196 to 198 °C

---

Listed here are compounds together with their documented melting point.

# count of solved cases: 5
compound	melting point
O=C(NCCc1cc2cc(c1)CNC(=O)c1coc(n1)-c1coc(n1)-c1cc(OCCCN3C(=O)c4ccccc4C3=O)cc(n1)-c1nc(co1)-c1nc(co1)C(=O)NC2)OCc1ccccc1 [Compound 45]	167 to 170 °C
CN(C)CCc1cc2cc(c1)CNC(=O)c1coc(n1)-c1coc(n1)-c1cccc(n1)-c1nc(co1)-c1nc(co1)C(=O)NC2 [Compound 33]	295 °C (dec.)
O=C1NCc2cccc(n2)CNC(=O)c2coc(n2)-c2coc(n2)-c2cccc(n2)-c2nc(co2)-c2nc1co2 [Compound 7]	330 °C (dec.)
O=C1NCc2cccc(c2)CNC(=O)c2coc(n2)-c2coc(n2)-c2cc(Br)cc(n2)-c2nc(co2)-c2nc1co2 [Compound 28]	211 to 213 °C
NCCc1cc2cc(c1)CNC(=O)c1coc(n1)-c1coc(n1)-c1cccc(n1)-c1nc(co1)-c1nc(co1)C(=O)NC2 [Compound 32]	277 to 280 °C (dec.)

Q. Return reported melting point; argument: O=C1NCCNCCNC(=O)c2coc(n2)-c2coc(n2)-c2cccc(n2)-c2nc(co2)-c2nc1co2 [Compound 8]
A. 276 °C (dec.)

Q. Which melting point is reported for this compound? O=C1NCc2cc(Br)cc(c2)CNC(=O)c2coc(n2)-c2coc(n2)-c2cc(Br)cc(n2)-c2nc(co2)-c2nc1co2 [Compound 34]
A. 250 °C (dec.)

Q. Param item = O=C1NCc2cccc(c2)CNC(=O)c2coc(n2)-c2csc(n2)-c2cccc(n2)-c2nc(co2)-c2nc1co2 [Compound 14] ; retrieve measured melting point.
A. 274 to 275 °C (dec.)

Attribution: patent US8796300B2
